Give measured SPOT peptide array binding signal intensity for each item. Keep answers brief.
SYSTEM NAME: ScLsb1
EXPERIMENTAL PROTOCOL: SPOT peptide array binding signal intensity (averaged, normalized) (arbitrary units (background-subtracted, floor 0; scale differs between SH3 domains)); higher = stronger binding of the SH3 domain to the peptide
Give bare numbers.

Some binders with known SPOT peptide array binding signal intensity results, for comparison:
YSRKKLPVVLSKMTL : 191
KKEKKPPKIPKKVYT : 4.75

Dear colleague, could you please provide SPOT peptide array binding signal intensity for the binders listed below?
1. TKFRISLGLPVGAIM
2. KKAPPPVVKPKPRNF

1: 19.8; 2: 20.5
